test: protein stability index of a GFP-peptide fusion (GPS, HEK-293T) (PSI 1-6); higher = more stable; conditions: treatment: DMSO; c terminus: a fixed tail appended;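 note: 24-mer peptide tiles fused after GFP, lentivirally expressed, FACS-sorted into six equal bins by GFP/DsRed ratio, decoded by Illumina sequencing, PSI is the read-weighted mean bin number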
Binary classification by protein stability index, with 3 as an inclusive lower bound for label 1; all other cases are label 0.

Here's what some known entries look like.
ERKPAATARLSRRGTSLSPPPESS [KISS1] ... label 1
MQLPPALCARLAAGPGAAEPLPVE [ZNF511] ... label 1
RDVKPENFLIGRQGNKKEHVIHII [CSNK1G1] ... label 0
VAAGEKSILTDNPTWIIDPIDGTT [IMPA1] ... label 1
LQKLSALLMTADILAETGIRKTVK [ELOA2] ... label 0

-- ask Hi team, for SESGADTISVNQTRVNLSSDTEST [DLC1] , is the recorded protein stability index at or above 3?
-- reply label 1

-- ask Hi team, for MTSSSAYYYTKVMSELFLHTPSDT [PKD2L1] , is the recorded protein stability index at or above 3?
-- reply label 0

-- ask Hi team, for PKGLDDESKDYLSLYLLLVSCPKS [SPOPL] , is the recorded protein stability index at or above 3?
-- reply label 0

-- ask Hi team, for RAYLFNSVVNVGCGPAEERVLLTG [YPEL3] , is the recorded protein stability index at or above 3?
-- reply label 0

-- ask Hi team, for ITTKIFWGGKAETERGLSRKHIIE [KCNAB2] , is the recorded protein stability index at or above 3?
-- reply label 0

###

test: protein stability index of a GFP-peptide fusion (GPS, HEK-293T) (PSI 1-6); higher = more stable; settings: treatment: DMSO; c terminus: a fixed tail appended
Binary classification by protein stability index, with 3 as an inclusive lower bound for 1; all other cases are -1.

Here's what some known entries look like.
AGDRFLEALGFSWHDTCFVCAICQ [PDLIM7] ... -1
LEKDFSIYGGELGPMMKLKRHFVA [ACSBG2] ... -1
ARSRALRRRWCPAGIMLLALVCLL [SPACA3] ... -1
AAPFRFVARPVRFPREHQFFEDGD [ZNF511] ... -1
LSFLDYRDLINCCYVSRRLSQLSS [FBXO3] ... -1
SLLKKPDGVKESTESSNTTIEDED [CAMK2D] ... 1

In the following, a different sequence is considered.
-- ask Hi team, for NYRIMSYFKEAELKDLLLQVGRGL [WEE1] , is the recorded protein stability index at or above 3?
-- reply -1

###

assay: protein stability index of a GFP-peptide fusion (GPS, HEK-293T) (PSI 1-6); higher = more stable; details: treatment: MLN4924 1 uM, 8 h; c terminus: a fixed tail appended
Binary classification by protein stability index, with 3 as an inclusive lower bound for Condition met; all other cases are Condition not met.

Here's what some known entries look like.
VFQHGDNSFRLLFDVVVILTCSLS [MCOLN1] ... Condition met
LPRKDYESLDYDRCINDPYLEVLE [CLCN6] ... Condition met
RFIHLVTGCVLGSSGKVLPKWGWE [POMT2] ... Condition met
SEMLDITMKESLTTREIRRQEAIY [NET1] ... Condition met
NGLEDIDRILERIEDSTGLNRPGP [TCF25] ... Condition met
LEEFQLALKHYVESASSQSGCLRI [NECAB1] ... Condition not met
VDCTEIFGGNPRFLSLHRAHLGEE [ZNF263] ... Condition met
ECVVAMHQAQLISKIPHILKEMYD [EIF5] ... Condition not met

-- ask Hi team, for HKHVHFSSSFTSIASEWFLIANRS [SLC22A15] , is the recorded protein stability index at or above 3?
-- reply Condition not met

-- ask Hi team, for MYSSSCETTRNTTGIEESTDGMIL [LARP4] , is the recorded protein stability index at or above 3?
-- reply Condition met

-- ask Hi team, for KQKVSRIERSSSFSSITDSTMSLN [DVL3] , is the recorded protein stability index at or above 3?
-- reply Condition met

-- ask Hi team, for KFAMYPPSMIATGSVGAAICGLQQ [CCND2] , is the recorded protein stability index at or above 3?
-- reply Condition not met

-- ask Hi team, for MDERLSLLRSPPPPSARHRAHPPQ [KCNA3] , is the recorded protein stability index at or above 3?
-- reply Condition met

-- ask Hi team, for RVGIFLDYEAGTLSFYNVTDRSHI [TRIM39] , is the recorded protein stability index at or above 3?
-- reply Condition not met

-- ask Hi team, for TASDSESRAESAPLPVSADDTPEV [CDS2] , is the recorded protein stability index at or above 3?
-- reply Condition met

-- ask Hi team, for DGQYLGVAFRGLKGKKLYPVVSAV [SPSB4] , is the recorded protein stability index at or above 3?
-- reply Condition not met
